assay: Plasma bioavailability and elimination half-life of RAP-103 (species not stated); assay type: in vivo; conditions: in vivo; oral, i.p., ss, and IV dosing; read-out: half-life (HL) elimination (converted)
reportedMetric: half-life

Q) # query: half-life of entry C[C@H](O)[C@@H](N)C(=O)N[C@@H](C(=O)N[C@H](CC(N)=O)C(=O)N[C@H](Cc1ccc(O)cc1)C(=O)N[C@@H](C(=O)O)[C@H](C)O)[C@H](C)O [RAP-103, All D-peptide-Thr-Thr-Asn-Tyr-Thr]
A) ~2.7 h
